Source of measurements: patent EP1910527B1

Would you kindly list Product (Peak area x 10^6): DP=6 for each of these compounds?
System: M-1-P-producing enzyme
Experimental Details: Maltose transfer reaction without phosphate, HPLC analysis of products
Format: biochemical, Corynebacterium glutamicum JCM1321
Condition Context: 2.0% substrate, 0.16 U/mL enzyme, one hour at 37°C

# Compound, Experimental Result
rows = [
    ("OC[C@H]1O[C@H](O[C@H]2[C@H](O)[C@@H](O)[C@@H](O[C@H]3[C@H](O)[C@@H](O)[C@@H](O[C@H]4[C@H](O)[C@@H](O)C(O)O[C@@H]4CO)O[C@@H]3CO)O[C@@H]2CO)[C@H](O)[C@@H](O)[C@@H]1O (stereo partly drawn)", "0.36 x 10^6"),
    ("OC[C@H]1O[C@H](O[C@H]2[C@H](O)[C@@H](O)[C@@H](O[C@H]3[C@H](O)[C@@H](O)[C@@H](O[C@H]4[C@H](O)[C@@H](O)[C@@H](O[C@H]5[C@H](O)[C@@H](O)C(O)O[C@@H]5CO)O[C@@H]4CO)O[C@@H]3CO)O[C@@H]2CO)[C@H](O)[C@@H](O)[C@@H]1O (stereo partly drawn)", "0.00 x 10^6"),
]

Consider now this further compound.
Memo: OC[C@H]1OC(O)[C@H](O)[C@@H](O)[C@@H]1O (stereo partly drawn) , reported Product (Peak area x 10^6): DP=6: 0.00 x 10^6

* * *

System: M-1-P-producing enzyme
Experimental Details: Maltose transfer reaction without phosphate, HPLC analysis of products
Assay type: biochemical, Corynebacterium glutamicum JCM1321
Condition Context: 2.0% substrate, 0.16 U/mL enzyme, one hour at 37°C
Metric: Product (Peak area x 10^6): DP=11

# Molecule, Subject Of Test, Experimental Result
records = [
    ("OC[C@H]1O[C@H](O[C@H]2[C@H](O)[C@@H](O)[C@@H](O[C@H]3[C@H](O)[C@@H](O)[C@@H](O[C@H]4[C@H](O)[C@@H](O)[C@@H](O[C@H]5[C@H](O)[C@@H](O)[C@@H](O[C@H]6[C@H](O)[C@@H](O)[C@@H](O[C@H]7[C@H](O)[C@@H](O)C(O)O[C@@H]7CO)O[C@@H]6CO)O[C@@H]5CO)O[C@@H]4CO)O[C@@H]3CO)O[C@@H]2CO)[C@H](O)[C@@H](O)[C@@H]1O (stereo partly shown) [Maltoheptaose]", "M-1-P-producing enzyme", "3.47 x 10^6"),
    ("OC[C@H]1O[C@H](O[C@H]2[C@H](O)[C@@H](O)[C@@H](O[C@H]3[C@H](O)[C@@H](O)C(O)O[C@@H]3CO)O[C@@H]2CO)[C@H](O)[C@@H](O)[C@@H]1O (stereo partly shown) [Maltotriose]", "M-1-P-producing enzyme", "0.00 x 10^6"),
    ("OC[C@H]1O[C@H](O[C@H]2[C@H](O)[C@@H](O)[C@@H](O[C@H]3[C@H](O)[C@@H](O)[C@@H](O[C@H]4[C@H](O)[C@@H](O)[C@@H](O[C@H]5[C@H](O)[C@@H](O)[C@@H](O[C@H]6[C@H](O)[C@@H](O)C(O)O[C@@H]6CO)O[C@@H]5CO)O[C@@H]4CO)O[C@@H]3CO)O[C@@H]2CO)[C@H](O)[C@@H](O)[C@@H]1O (stereo partly shown) [Maltohexaose]", "M-1-P-producing enzyme", "0.00 x 10^6"),
    ("OC[C@H]1OC(O)[C@H](O)[C@@H](O)[C@@H]1O (stereo partly shown) [Glucose]", "M-1-P-producing enzyme", "0.00 x 10^6"),
    ("OC[C@H]1O[C@H](O[C@H]2[C@H](O)[C@@H](O)[C@@H](O[C@H]3[C@H](O)[C@@H](O)[C@@H](O[C@H]4[C@H](O)[C@@H](O)[C@@H](O[C@H]5[C@H](O)[C@@H](O)C(O)O[C@@H]5CO)O[C@@H]4CO)O[C@@H]3CO)O[C@@H]2CO)[C@H](O)[C@@H](O)[C@@H]1O (stereo partly shown) [Maltopentaose]", "M-1-P-producing enzyme", "0.00 x 10^6"),
]

Parameter requested: Product (Peak area x 10^6): DP=11. Apply to each item below.
1. OC[C@H]1O[C@H](O[C@H]2[C@H](O)[C@@H](O)C(O)O[C@@H]2CO)[C@H](O)[C@@H](O)[C@@H]1O (mixture of isomers) [Maltose]
2. OC[C@H]1O[C@H](O[C@H]2[C@H](O)[C@@H](O)[C@@H](O[C@H]3[C@H](O)[C@@H](O)[C@@H](O[C@H]4[C@H](O)[C@@H](O)C(O)O[C@@H]4CO)O[C@@H]3CO)O[C@@H]2CO)[C@H](O)[C@@H](O)[C@@H]1O (stereo partly shown) [Maltotetraose]

1. 0.00 x 10^6
2. 0.00 x 10^6
